- Tested on: SF295 (central nervous system tumor)
Each record is given 1.0 if its reported GI50 is strictly below 10 nM. Records at or above 10 nM are given 0.0.

{"columns": ["STRUCTURE_NOTATION", "TARGET_OR_TEST_SYSTEM", "DISCRETE_LABEL"],
 "data": [
  ["[2H]C([2H])([2H])Oc1cc(C(=O)Nc2cc3c(cc2Oc2cc(C)cc(C)c2)C(=O)N[C@@H](CC(=O)N(C([2H])([2H])C([2H])([2H])[2H])C([2H])([2H])C([2H])([2H])[2H])C(=O)N3)c(Br)c(OC([2H])([2H])[2H])c1OC([2H])([2H])[2H]", "SF295 (central nervous system tumor)", 0.0],
  ["[2H]C([2H])([2H])C([2H])([2H])N(C(=O)C[C@H]1C(=O)Nc2cc(NC(=O)c3cc(OC)c(OC)c(OC)c3Cl)c(Oc3cc(C)cc(C)c3)cc2C(=O)N1C)C([2H])([2H])C([2H])([2H])[2H]", "SF295 (central nervous system tumor)", 0.0],
  ["[2H]C([2H])([2H])Oc1c(OC)cc(C(=O)Nc2cc3c(cc2Oc2cc(C)cc(C)c2)C(=O)N[C@@H](CC(=O)N(CC)CC)C(=O)N3)c(Cl)c1OC", "SF295 (central nervous system tumor)", 1.0],
  ["[2H]c1c(C)c([2H])c(Oc2cc3c(cc2NC(=O)c2cc(OC)c(OC)c(OC)c2Cl)NC(=O)[C@H](CC(=O)N(CC)CC)NC3=O)c([2H])c1C", "SF295 (central nervous system tumor)", 0.0],
  ["[2H]C([2H])([2H])Oc1cc(C(=O)Nc2cc3c(cc2Oc2cc(C)cc(C)c2)C(=O)N[C@@H](CC(=O)N(CC)CC)C(=O)N3)c(Cl)c(OC([2H])([2H])[2H])c1OC([2H])([2H])[2H]", "SF295 (central nervous system tumor)", 0.0]
]}

QUERY: In plain terms, does "[2H]C([2H])([2H])Oc1cc(C(=O)Nc2cc3c(cc2Oc2cc(C)cc(C)c2)C(=O)N(C)[C@@H](CC(=O)N2CCN(C)CC2)C(=O)N3)c(Br)c(OC([2H])([2H])[2H])c1OC([2H])([2H])[2H]" come in under 10 nM for GI50?
RESULT: 0.0

----------
- TEST_DETAILS: Liver microsomes stability
- Assay type: in vitro ADME, human
- CONDITION_DETAILS: 1 μM compound, 1 mg/mL human liver microsomes, 1 mM NADPH
ASSAY_READOUT: microsomal CLint at 1 μM

QUERY: Requested read-out: microsomal CLint at 1 μM. Entry: [2H]C([2H])([2H])Oc1cc(C(=O)Nc2cc3c(cc2Oc2cc(C)cc(C)c2)C(=O)N[C@@H](CC(=O)N(C([2H])([2H])C([2H])([2H])[2H])C([2H])([2H])C([2H])([2H])[2H])C(=O)N3)c(Br)c(OC([2H])([2H])[2H])c1OC([2H])([2H])[2H] [Compound 5]
RESULT: 3.2 µL/min/mg

QUERY: # iterate: [2H]c1c(Oc2cc3c(cc2NC(=O)c2cc(OC)c(OC)c(OC)c2Cl)NC(=O)[C@H](CC(=O)N(CC)CC)NC3=O)c([2H])c(C([2H])([2H])[2H])c([2H])c1C([2H])([2H])[2H] [Compound 25]
RESULT: 29.8 µL/min/mg

QUERY: # iterate: [2H]C([2H])([2H])Oc1cc(C(=O)Nc2cc3c(cc2Oc2cc(C)cc(C)c2)C(=O)N[C@@H](CC(=O)N(CC)CC)C(=O)N3)c(Br)c(OC([2H])([2H])[2H])c1OC([2H])([2H])[2H] [Compound 4]
RESULT: 20.5 µL/min/mg

QUERY: # iterate: [2H]C([2H])([2H])N1C(=O)c2cc(Oc3cc(C)cc(C)c3)c(NC(=O)c3cc(OC)c(OC)c(OC)c3Cl)cc2NC(=O)[C@@H]1CC(=O)N(C([2H])([2H])C([2H])([2H])[2H])C([2H])([2H])C([2H])([2H])[2H] [Compound 19]
RESULT: 21.1 µL/min/mg

----------
Lab note: GI50 readings collected with SF295 (central nervous system tumor) for the following compounds.
Please reply with the bare figure in nM and do not write the unit itself.

{"columns": ["COMPOUND", "TARGET_OR_TEST_SYSTEM", "UOM", "GI50"],
 "data": [
  ["[2H]C([2H])([2H])Oc1cc(C(=O)Nc2cc3c(cc2Oc2cc(C)cc(C)c2)C(=O)N[C@@H](CC(=O)N(OC([2H])([2H])[2H])C([2H])([2H])[2H])C(=O)N3)c(Br)c(OC([2H])([2H])[2H])c1OC([2H])([2H])[2H] [Compound 37]", "SF295 (central nervous system tumor)", "nM", 12],
  ["[2H]c1c(Oc2cc3c(cc2NC(=O)c2cc(OC)c(OC)c(OC)c2Cl)NC(=O)[C@H](CC(=O)N(CC)CC)NC3=O)c([2H])c(C([2H])([2H])[2H])c([2H])c1C([2H])([2H])[2H] [Compound 25]", "SF295 (central nervous system tumor)", "nM", 14.2]
]}

Now for another entry.
QUERY: Requested read-out: GI50. Entry: [2H]C([2H])([2H])Oc1cc(C(=O)Nc2cc3c(cc2Oc2cc(C)cc(C)c2)C(=O)N[C@@H](CC(=O)N(C)OC)C(=O)N3)c(Cl)c(OC([2H])([2H])[2H])c1OC([2H])([2H])[2H] [Compound 35]
RESULT: 29

----------
- TEST_DETAILS: Liver microsomes stability
- Assay type: in vitro ADME, human
- CONDITION_DETAILS: human, human liver microsomes, 1 μM compound, 1 mg/mL human liver microsomes, 1 mM NADPH; read-out: T½ of HLM
- Protocol: The compound to be tested with final concentration of 1 μM was incubated with 1 mg/mL of human liver microsomes and 1 mM of NADPH, and a group without NADPH was set as a negative control. The reaction mixture was quenched with methanol at five time points of 0, 5, 15, 30 and 60 min, respectively, then centrifuged at 2500 rpm for 20 min to precipitate proteins, and the resulting supernatant was analyzed by LC-MS/MS. […]
ASSAY_READOUT: half-life at 1 μM (min)
Please reply with the bare figure in min and do not write the unit itself.

See these solved cases before continuing.
{"columns": ["MOLECULE", "UOM", "VALUE"],
 "data": [
  ["[2H]C([2H])([2H])OC(=O)C[C@@H]1NC(=O)c2cc(Oc3cc(C)cc(C)c3)c(NC(=O)c3cc(OC)c(OC)c(OC)c3Cl)cc2NC1=O [Compound 9]", "min", 117],
  ["[2H]C([2H])([2H])N(C(=O)C[C@@H]1NC(=O)c2cc(Oc3cc(C)cc(C)c3)c(NC(=O)c3cc(OC)c(OC)c(OC)c3Br)cc2NC1=O)C([2H])([2H])[2H] [Compound 22]", "min", 151],
  ["[2H]C([2H])([2H])Oc1cc(C(=O)Nc2cc3c(cc2Oc2cc(C)cc(C)c2)C(=O)N[C@@H](CC(=O)N(C)OC)C(=O)N3)c(Cl)c(OC([2H])([2H])[2H])c1OC([2H])([2H])[2H] [Compound 35]", "min", 59.2],
  ["[2H]C([2H])([2H])C([2H])([2H])N(C(=O)C[C@H]1C(=O)Nc2cc(NC(=O)c3cc(OC)c(OC)c(OC)c3Br)c(Oc3cc(C)cc(C)c3)cc2C(=O)N1C)C([2H])([2H])C([2H])([2H])[2H] [Compound 11]", "min", 24.6]
]}

Now for another entry.
QUERY: Requested read-out: half-life at 1 μM. Entry: [2H]C([2H])([2H])c1cc(Oc2cc3c(cc2NC(=O)c2cc(OC)c(OC)c(OC)c2Cl)NC(=O)[C@H](CC(=O)N(CC)CC)NC3=O)cc(C([2H])([2H])[2H])c1 [Compound 23]
RESULT: 25.8

----------
- TEST_DETAILS: Metabolic stability in vivo (plasma half-life after IV)
- CONDITION_DETAILS: mouse, plasma, iv; intravenously at 1 mg/kg, male BALB/c nude mice; read-out: T½ of (IV in nude mice) (converted)
- Procedure: The intravenous injection group of the embodiment compound was prepared with the mixed solvent of DMA:PEG400:30% SBECD=5:25:70 to form a 0.2 mg/mL of solution, and administered intravenously at 1 mg/kg of weight; and the oral preparation group was prepared with 0.5% MC to form a 1 mg/mL of solution, and administered by oral gavage at 10 mg/kg weight. • Male BALB/c nude mice, 4-5 weeks old, purchased from Shanghai SLAC. 3. […]
ASSAY_READOUT: half-life (min)
Please reply with the bare figure in min and do not write the unit itself.

{"columns": ["COMPOUND", "VALUE"],
 "data": [
  ["[2H]C([2H])([2H])Oc1cc(C(=O)Nc2cc3c(cc2Oc2cc(C)cc(C)c2)C(=O)N[C@@H](CC(=O)N(C)C)C(=O)N3)c(Br)c(OC([2H])([2H])[2H])c1OC([2H])([2H])[2H] [Compound 20]", 48],
  ["[2H]C([2H])([2H])Oc1cc(C(=O)Nc2cc3c(cc2Oc2cc(C)cc(C)c2)C(=O)N[C@@H](CC(=O)N(C([2H])([2H])C([2H])([2H])[2H])C([2H])([2H])C([2H])([2H])[2H])C(=O)N3)c(Br)c(OC([2H])([2H])[2H])c1OC([2H])([2H])[2H] [Compound 5]", 91.2],
  ["COc1cc(C(=O)Nc2cc3c(cc2Oc2cc(C)cc(C)c2)C(=O)N[C@@H](CC(=O)N(C)C)C(=O)N3)c(Br)c(OC)c1OC [d, reference compound]", 46.6]
]}

Now for another entry.
QUERY: Requested read-out: half-life. Entry: [2H]C([2H])([2H])C([2H])([2H])N(C(=O)C[C@@H]1NC(=O)c2cc(Oc3cc(C)cc(C)c3)c(NC(=O)c3cc(OC)c(OC)c(OC)c3Cl)cc2NC1=O)C([2H])([2H])C([2H])([2H])[2H] [Compound 8]
RESULT: 38
